These measurements were taken from patent US20100158926A1.

# Assayed Target: human ErbB2, full length, on cells (B300.19/hErbB2 clone #44; MCF7; BT474; SKBR3) (human)
Measurement Type: EC50 (ng/ml), inhibition of Heregulin-induced MCF7 cell proliferation

Binder | Measured
monoclonal antibody 1.18.1 (antibody, V domains shown) VH: QVQLVESGGGVVQPGRSLRLSCAASGFTFSSYGMHWVRQAPGKGLEWVAVIWYDRSNKYYADSVKGRFTISRDNSKNTLYLQMDSLRAEDTAVYYCAGGRSRGAFDYWGQGTLVTVSS VL: DIQMTQSPSSLSASVGDRVTITCRASQGIRNYLAWFQQKPGKAPKSLIYAASSLQSGVPSTFSGSGSGTHFTLTISSLQPEDFASYFCQQYEIYPLTFGGGTKVEIK | 415 ng/mL
monoclonal antibody 1.14.1 (antibody, V domains shown) VH: QLQLQESGPGLVKPSETLSLTCTVSGDSISSFIYYWGWIRQPPGKGLEWIGTIYYSGSTYYNPSLKSRVTISVDTSKNQFSLKLRSVTAADTAVYYCARHHWVFDYWGQGTQVTVSS VL: DIVLTQFPDFQSVTPKEKVTITCRASQVIGSSLHWYQQKPDQSPKLLIKYASQSFSGVPSRFSGSGSGTDFTLTINSLEVEDAATYYCHQSTILPWTFGQGTKVEVK | 640 ng/mL
monoclonal antibody 1.39 (antibody, V domains shown) VH: QLQLQESGPGLVKPSETLSLTCTVSGGSISSSTYYWGWIRQPPGKGLEWIGTIYYSGSTYYNPSLKSRVTISVDTSKNQFSLKLNSVTAADTAVYYCARHHWVFDYWGQGTLVTVSS VL: EIVLTQSPDFLSVTPKEKVTITCRASQIIGSSLHWYQQKPDQSPKLLIKYASQSFSGVPSRFSGSGSGTDFTLTLNSLEAEDAATYYCHQSTILPWTFGQGTKVEIK | 479 ng/mL
monoclonal antibody 1.96 (antibody, V domains shown) VH: EVQLVESGGGLVQPGGSLRLSCAASGFTFSSYWMSWVRQAPGKGLEWVANIKQDGSEKYYVDSVKGRFTISRDNAKNSLYLQMNSLRAEDTAVYYCARWGVFGSGSYYIPFDYWGQGTLVTVSS VL: DIQMTQSPSSLSASVGDRVTITCRASHSITRYINWYQQKPGKAPNLLIYAASSLQSGVPSRFSGSGSGTDFTLTISSPQPEDFATYYCQQSYSSPPITFGQGTRLEIK | 2830 ng/mL
monoclonal antibody 1.100.1 (antibody, V domains shown) VH: QLQLQESGPGLVKPSETLSLTCTVSGGFISSSSYYWGWIRQPPGKGLEWIGTIYYSGTTYYNSSLKSRVTISVDTSQNQFSLKLSSVTAADTAVYYCARHHWVFDYWGQGTLVTVSS VL: EVVLTQSPDFQSVTPKEKITITCRASQIIGTSLHWYQKKPDQSPKLLIKYASQSFSGVPSRFSGSGSGTEFTLTINSLEAEDTATYYCHQSTNLPWTFGQGTKVEIK | 2040 ng/mL
monoclonal antibody 1.20 (antibody, V domains shown) VH: QLQLQESGPGLVKPSETLSLTCTVSGGSISSSNYYWGWIRQPPGKGLEWIGTIYYTGSTYYNPSLKSRVTISVDTSKNQFSLKLSSVTAADTAVYYCARHHWVFDYWGQGTLVTVSS VL: DIQMTQSPSSVSASVGDRVTITCRASQGISSWLAWYQQKPGKAPKLLIYAASSLQSGVPSRFSGSGSGTDFTLTISSLQPEDFATYYCQRTNSFPRTFGQGTKVEIK | 770 ng/mL
monoclonal antibody 1.43 (antibody, V domains shown) VH: QVQLVESGGGLVKPGGSLRLSCAASGFTFSDYYMNWIRQAPGKGLEWVSYISSSGSIIYYADSVKGRFTISRDNAKNSLYLQMNSLRAEDTAVYYCAREGRIAARGMDVWGQGTTVTVSS VL: DIQMTQSPSSLSASVGDRVSITCRPSQSFSRYINWYQQKPGKAPKLLIHAASSLVGGVPSRFSGSGSGTDFTLTISSLQPEDFATYYCQQTYSNPPITFGQGTRLEMK | 10000 ng/mL
